biological target: human dopamine receptor subtype hD2long (Homo sapiens, UniProt P14416); construct: expressed in transfected cells; host or cells: CHO; experiment: Receptor binding assay, [3H]spiperone competition, CHO cell membranes; settings: vs p5-HT1a
Sequence (P14416 whole entry): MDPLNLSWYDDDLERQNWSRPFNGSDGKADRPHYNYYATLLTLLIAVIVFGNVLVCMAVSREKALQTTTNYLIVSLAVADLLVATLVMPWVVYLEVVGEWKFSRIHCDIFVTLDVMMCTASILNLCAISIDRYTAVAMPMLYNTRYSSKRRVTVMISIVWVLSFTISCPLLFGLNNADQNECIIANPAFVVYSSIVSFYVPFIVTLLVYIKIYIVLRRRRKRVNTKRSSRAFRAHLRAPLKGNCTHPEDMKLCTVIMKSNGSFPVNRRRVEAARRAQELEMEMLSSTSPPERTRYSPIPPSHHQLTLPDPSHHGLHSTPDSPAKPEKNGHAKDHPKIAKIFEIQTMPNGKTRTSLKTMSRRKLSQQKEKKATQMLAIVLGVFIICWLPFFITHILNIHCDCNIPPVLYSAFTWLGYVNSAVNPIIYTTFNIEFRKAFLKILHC

[
  {
    "COMPOUND": "CCCN(CCc1ccccc1)C1CCc2cccc(O)c2C1 (centres unmarked)",
    "selectivity ratio hD2long": "1 200"
  },
  {
    "COMPOUND": "CCCN(CCc1cc2ccc1CCc1ccc(cc1)CC2)C1CCc2cccc(O)c2C1 (centres unmarked)",
    "selectivity ratio hD2long": 66
  },
  {
    "COMPOUND": "CCCN(CCc1cccs1)C1CCc2cccc(O)c2C1 (centres unmarked)",
    "selectivity ratio hD2long": 360
  },
  {
    "COMPOUND": "CCCN(CCc1cccs1)[C@@H]1CCc2cccc(O)c2C1",
    "selectivity ratio hD2long": 460
  },
  {
    "COMPOUND": "CCCN(CCc1cc(C)ccc1C)C1CCc2cccc(O)c2C1 (centres unmarked)",
    "selectivity ratio hD2long": 82
  },
  {
    "COMPOUND": "CCCN(CCc1cc2ccc1CCc1ccc(cc1)CC2)C1CCc2cccc(OC)c2C1 (centres unmarked)",
    "selectivity ratio hD2long": 0.96
  },
  {
    "COMPOUND": "CCCN(CCc1cccs1)[C@H]1CCc2cccc(O)c2C1",
    "selectivity ratio hD2long": 290
  },
  {
    "COMPOUND": "CCCN(CCc1ccc(O)cc1)C1CCc2cccc(O)c2C1 (centres unmarked)",
    "selectivity ratio hD2long": 310
  }
]
